Biological target: human adenosine A2A receptor (Homo sapiens)
Construct: expressed in transfected cells; host or cells: HEK293 cells infected with BacMam
Sequence (P29274 whole entry): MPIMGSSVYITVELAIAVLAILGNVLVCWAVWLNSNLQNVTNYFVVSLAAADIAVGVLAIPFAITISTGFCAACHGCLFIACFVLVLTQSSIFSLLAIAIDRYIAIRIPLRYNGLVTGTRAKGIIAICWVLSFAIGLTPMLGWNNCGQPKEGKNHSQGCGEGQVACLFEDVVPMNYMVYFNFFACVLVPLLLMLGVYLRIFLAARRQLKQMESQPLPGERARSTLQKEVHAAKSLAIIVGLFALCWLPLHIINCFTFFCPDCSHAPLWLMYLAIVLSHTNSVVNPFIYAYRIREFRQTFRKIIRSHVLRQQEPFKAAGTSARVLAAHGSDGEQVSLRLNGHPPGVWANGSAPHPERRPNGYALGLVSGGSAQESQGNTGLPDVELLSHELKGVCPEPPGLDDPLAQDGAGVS
Experiment: Inhibition binding assay, human adenosine A2A receptor membranes, [3H]ZM241385
Conditions: 1 nM [3H]ZM241385, HEK293-hA2A membranes, 25° C., 1 h; IC50 converted to Ki with Cheng-Prusoff; read-out: A2A pKi (converted)
QUANTITY_NAME: Ki (nM)
Answer in nM, number only, no unit symbol.

Examples with answers:
# SMILES_STRUCTURE, Ki (nM)
records = [
    ("Cc1cc(-c2c(-c3ccccc3)nc(N)n3c(=O)n(CC4CCN(C(=O)OC(C)(C)C)CC4)nc23)cc(C)n1", 6.31),
    ("Cc1cc(-c2c(-c3ccc(C)o3)nc(N)n3c(=O)n(CCC(F)(F)F)nc23)cc(C)n1", 2),
]

[ask] Which Ki value is on record for COCCn1nc2c(-c3cc(C)nc(C)c3)c(-c3ccccc3)nc(N)n2c1=O ?
[reply] 10

[ask] Same for Cc1cc(-c2c(-c3ccccc3)nc(N)n3c(=O)n(Cc4ccc(Cl)cn4)nc23)cc(CO)n1
[reply] 1.58
